# growth inhibition per entry
test: NCI Yeast Anticancer Drug Screen. Data for the mlh1 rad18 strain (AID 175); conditions: S. cerevisiae mlh1 rad18 strain growth inhibition; at 5.0 µM (retest, dose inferred, filed as 0.5); hits give high values
The panel holds about 79,000 compounds, 15% with a hit somewhere; the sample as a whole holds those more often.
measure: growth inhibition (%)

[
  {
    "compound": "CCCCCCCCCCCCOP(=O)(N1CC1(C)C)N1CC1(C)C (configuration not stated)",
    "unit": "%",
    "value observed": 4
  },
  {
    "compound": "Cn1cnc2[nH]c(Cl)nc(=S)c21",
    "unit": "%",
    "value observed": -2
  },
  {
    "compound": "CC(=O)Nc1cccc2c1ccc1ccc3ccccc3c12",
    "unit": "%",
    "value observed": 32
  },
  {
    "compound": "Clc1ccc(CSCCc2ccncc2)cc1Cl",
    "unit": "%",
    "value observed": 4
  },
  {
    "compound": "Cc1ccc(C2=C(C#N)C(c3ccccc3)C(C#N)=C(N)O2)cc1 (configuration not stated)",
    "unit": "%",
    "value observed": 59
  },
  {
    "compound": "CCOc1nc(N)nc(C)c1N=Nc1ccc(Br)cc1",
    "unit": "%",
    "value observed": 17
  },
  {
    "compound": "CCCCCCCCCCCCCCCCCCOP(=O)([O-])OCC[N+](C)(C)C",
    "unit": "%",
    "value observed": 10
  },
  {
    "compound": "CC(NNC(=S)NCc1ccccc1)c1cc2ccccc2cn1 (configuration not stated)",
    "unit": "%",
    "value observed": 19
  },
  {
    "compound": "NC(=O)N/N=C1/CC2CCCCC2c2ccccc21 (configuration not stated)",
    "unit": "%",
    "value observed": -6
  },
  {
    "compound": "C=C1C2Oc3ccccc3C1N(c1ccccc1)O2 (configuration not stated)",
    "unit": "%",
    "value observed": 5
  },
  {
    "compound": "CN1CCS(=O)(=O)C1=O",
    "unit": "%",
    "value observed": 1
  },
  {
    "compound": "O=C(NC(OCc1ccccc1)(C(F)(F)F)C(F)(F)F)OCc1ccccc1",
    "unit": "%",
    "value observed": 2
  }
]
